Origin of the recorded values: the supplement of paper PMC9170038

Tested on: MS2 coat protein
Test: apparent KD of MS2 coat protein; designed switch direction (-1 OFF switch, 1 ON switch): 1; higher = weaker reporter binding
Conditions: Eterna round: R95; input ligand: microRNA oligo, concentration not stated
Record form. Attribute: apparent KD of MS2 coat protein. Fill in for each entry.
Output spec: scalar in µM, unitless text.

# input sequence: GCAGUACUAGCAGAGGAUAUGUCGGUAACGACAUGAGGAUCACCCAUGUGUACGAAAGUGCUCAGACAGAAGGCUGAGUACUGCU [Same State 2 - Hyphema v.1] (puzzle: Same State 2) ; wanted: its apparent KD of MS2 coat protein
0.0584

# input sequence: GGCUAUCGGCGUACCGAUAGCUGGUAUGUACAUGAGGAUCACCCAUGUCAUGUACAGGCUUGUUGCUCGUCUUAUUG [JL-shm-2.38 JL mod] (puzzle: Sensor for hsa-mir-208a) ; wanted: its apparent KD of MS2 coat protein
0.033

# input sequence: AGUCCAGCCUGAGCUGGACAAAAGCAUGUACAUGAGGAUCACCCAUGUUCAUGUACAAGCUUUUUGCUCGUCUUGGA [salish99_208a_r3_103x] (puzzle: Sensor for hsa-mir-208a) ; wanted: its apparent KD of MS2 coat protein
0.0162

# input sequence: AGCUAUCGAAAACGAUAGCAAAAGCGUGUACAUGAGGAUCACCCAUGUCAUGUACAAGCUUUUUGCUCGUCUUAAAA [Zipper 23 - 6] (puzzle: Sensor for hsa-mir-208a) ; wanted: its apparent KD of MS2 coat protein
0.0144

# input sequence: AUUUAACAAGCUUUUUGCUCGUCUUAUAAACAUGAGGAUCACCCAUGUAAUAGCGUGAGAGUAAAUAUUUAAAUAAU [JMF 93] (puzzle: Sensor for hsa-mir-208a) ; wanted: its apparent KD of MS2 coat protein
0.0483
